assay-text: in vivo
condition-description: rat, po
parameter: AUC(0-t) at 6 h (µM·h)
The response must be a number in µM·h with no trailing unit.

>>> result_number("Cc1ccc(-n2cnc3c(sc4ncnc(NC5CC5)c43)c2=O)cc1")
0.89

In the following, a different compound is considered.
Q: Entry `COc1ccc(-n2cnc3c(sc4ncnc(NC5CC5)c43)c2=O)cc1F` : reported AUC(0-t) at 6 h = ?
Result: 8.6
